Test system: C. neoformans H99
Assay: MIC80 broth microdilution
Type: cell-based, Candida neoformans
Conditions: Cryptococcus neoformans, 80% growth inhibition, RPMI-1640
result-type: MIC80 (µg/mL)
Answer in µg/mL, number only, no unit symbol.

Sample records with MIC80:
COc1ccc2cc3c4cc5c(cc4cc[n+]3cc2c1OC)OCO5 : 0.5
Cc1c2cc3c(cc2cc2c4cc5c(cc4cc[n+]12)OCO5)OCO3 : 1
COc1cc2cc[n+]3c(C)c4cc5c(cc4cc3c2cc1OC)OCO5 : 8
CCc1c2cc3c(cc2cc2c4cc5c(cc4cc[n+]12)OCO5)OCO3 : 2
OC(Cn1cncn1)(Cn1cncn1)c1ccc(F)cc1F [Fluconazole, reference compound] : 4

Next molecule, please.
Note down MIC80 recorded for COc1cc2cc3c4cc5c(cc4cc[n+]3c(C)c2cc1OC)OCO5 8

* * *

Quick reference for toxicity (MTT) among some compounds
Tested on: 293T kidney cell
Assay: MTT toxicity assay
Assay type: cell-based
Conditions: MTT after 24 hours and 48 hours
Kindly answer with a numeric value in µg/mL, unit omitted.

COc1cc2cc[n+]3c(C)c4cc5c(cc4cc3c2cc1OC)OCO5 : 80
Cc1c2cc3c(cc2cc2c4cc5c(cc4cc[n+]12)OCO5)OCO3 : 25
COc1cc2cc3c4cc5c(cc4cc[n+]3c(C)c2cc1OC)OCO5 : 60
CCc1c2cc3c(cc2cc2c4cc5c(cc4cc[n+]12)OCO5)OCO3 : 70

Let us examine a further case.
Answer with the recorded toxicity (MTT) of COc1ccc2cc3c4cc5c(cc4cc[n+]3cc2c1OC)OCO5 only. 80

* * *

MIC80 reference
System: C. albicans (SC5314)
Assay: MIC80 broth microdilution
Format: cell-based
Settings: Candida albicans, 80% growth inhibition, RPMI-1640, read at 24 and 48 h
Write the number in µg/mL without appending the unit.

Example results:
COc1ccc2cc3c4cc5c(cc4cc[n+]3cc2c1OC)OCO5 [compound 403831] : 1
OC(Cn1cncn1)(Cn1cncn1)c1ccc(F)cc1F [Fluconazole, reference compound] : 0.25
COc1cc2cc[n+]3c(C)c4cc5c(cc4cc3c2cc1OC)OCO5 [compound 156624] : 4
Cc1c2cc3c(cc2cc2c4cc5c(cc4cc[n+]12)OCO5)OCO3 [compound 156627] : 0.5
COc1cc2cc3c4cc5c(cc4cc[n+]3c(C)c2cc1OC)OCO5 [compound 160459] : 4

Here is another molecule to look at.
In one line, give reported MIC80 of the entry CCc1c2cc3c(cc2cc2c4cc5c(cc4cc[n+]12)OCO5)OCO3 [compound 157108] . 1

* * *

Reported toxicity (MTT) by item:
Tested on: HepG2 liver cell
Test: MTT toxicity assay
Type: cell-based, human
Conditions: MTT after 24 hours and 48 hours
Give your result in µg/mL as a bare value.

Provide measured toxicity (MTT) value, entry: COc1cc2cc3c4cc5c(cc4cc[n+]3c(C)c2cc1OC)OCO5 50

Output measured toxicity (MTT) for this item: COc1ccc2cc3c4cc5c(cc4cc[n+]3cc2c1OC)OCO5 80

Give toxicity (MTT) for COc1cc2cc[n+]3c(C)c4cc5c(cc4cc3c2cc1OC)OCO5 80

Answer with reported toxicity (MTT) of CCc1c2cc3c(cc2cc2c4cc5c(cc4cc[n+]12)OCO5)OCO3 64

# return recorded toxicity (MTT) for entry Cc1c2cc3c(cc2cc2c4cc5c(cc4cc[n+]12)OCO5)OCO3 25
